Cited source: patent US20230331827A1

# TARGET ENTITY: trypsin
# TEST METHOD NOTES: TRF, 2.4 ug/mL Fab on trypsin
MEASURED QUANTITY: TRF signal

Reference set (3 entries):
| BINDER | EXPERIMENTAL VALUE |
| --- | --- |
| KB_B01 Fab (Fab, V domains shown) VH: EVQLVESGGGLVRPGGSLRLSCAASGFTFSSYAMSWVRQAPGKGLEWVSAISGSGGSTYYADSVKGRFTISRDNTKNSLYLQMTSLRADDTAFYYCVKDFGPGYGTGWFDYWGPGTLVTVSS VL: AVNWYQQLPGKAPKLLIYAAAGCPRILMRCKQDSDCLAGCVCGPNGFCGTRSGVSDRFSGSKSGTSASLAISGLRSEDEADYYCAAWDDSLRAYVFGTGTKLTVLG | 153000 |
| KB_A02 Fab (Fab, V domains shown) VH: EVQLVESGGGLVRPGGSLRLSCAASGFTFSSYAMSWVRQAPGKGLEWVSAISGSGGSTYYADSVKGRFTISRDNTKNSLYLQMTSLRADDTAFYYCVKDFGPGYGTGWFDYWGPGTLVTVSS VL: AVNWYQQLPGKAPKLLIYAAAKCPRILMRCKQDSDCLAGCVCGPNGFCGGASGVSDRFSGSIDSSSNSASLTISGLKPEDEGDYYCQSYDSSNRWVFGGGTKVTVLG | 221000 |
| KB_A11 Fab (Fab, V domains shown) VH: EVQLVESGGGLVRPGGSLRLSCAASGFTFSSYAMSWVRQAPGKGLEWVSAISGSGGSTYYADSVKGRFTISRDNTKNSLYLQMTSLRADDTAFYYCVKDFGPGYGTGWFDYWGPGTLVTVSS VL: YLNWYQQKPGKAPKLLIYAAEICPRILMRCKQDSDCLAGCVCGPNGFCGPSSGIPARFSGSGYGTDFTLTINNIESEDAAYYFCLQHDNFPYTFGQGTKVEIKR | 141000 |

Continue with the next binder.
### Prompt Reported TRF signal for KB_A05 Fab (Fab, V domains shown) VH: EVQLVESGGGLVRPGGSLRLSCAASGFTFSSYAMSWVRQAPGKGLEWVSAISGSGGSTYYADSVKGRFTISRDNTKNSLYLQMTSLRADDTAFYYCVDFGPGYGTGWFDYWGPGTLVTVSS VL: AVNWYQQLPGKAPKLLIYAADKCPRILMRCKQDSDCLAGCVCGPNGFCGGGSGIPERFSGSKSGTSASLAISGLRSEDEADYYCATWDDNLNGVVFGGGTKLTVLG : what is it?
### Response 65400
